Here the recorded IC50 is given for each entry.
# assay explanation: Displacement of [3H]-cytisine from nAChR in rat brain membranes
# Type: cell membranes

Sure, the documented IC50 for Cc1cc(C2=CCC[C@@H]3CC[C@H]2N3)on1 (racemic) is 0.0091 µM

// field: IC50; key: CCOC(=O)c1noc2c1[C@H]1CC[C@@H](CC2)N1 (racemic) ; value = > 10 µM

// sample C1=C(c2cc(-c3ccccc3)no2)[C@H]2CC[C@@H](CC1)N2 (racemic) , its IC50 was > 10 µM

Given item CCOC(=O)c1cc(C2=CCC[C@@H]3CC[C@H]2N3)on1 (racemic) , the value recorded as its IC50 is > 10 µM

Lab note: measured IC50 of Cc1noc2c1[C@H]1CC[C@@H](CC2)N1 (racemic) was > 10 µM
